Cited source for all entries: patent US9415055B2

target_of_assay: UniProtKB Q99572
Sequence (Q99572 whole entry): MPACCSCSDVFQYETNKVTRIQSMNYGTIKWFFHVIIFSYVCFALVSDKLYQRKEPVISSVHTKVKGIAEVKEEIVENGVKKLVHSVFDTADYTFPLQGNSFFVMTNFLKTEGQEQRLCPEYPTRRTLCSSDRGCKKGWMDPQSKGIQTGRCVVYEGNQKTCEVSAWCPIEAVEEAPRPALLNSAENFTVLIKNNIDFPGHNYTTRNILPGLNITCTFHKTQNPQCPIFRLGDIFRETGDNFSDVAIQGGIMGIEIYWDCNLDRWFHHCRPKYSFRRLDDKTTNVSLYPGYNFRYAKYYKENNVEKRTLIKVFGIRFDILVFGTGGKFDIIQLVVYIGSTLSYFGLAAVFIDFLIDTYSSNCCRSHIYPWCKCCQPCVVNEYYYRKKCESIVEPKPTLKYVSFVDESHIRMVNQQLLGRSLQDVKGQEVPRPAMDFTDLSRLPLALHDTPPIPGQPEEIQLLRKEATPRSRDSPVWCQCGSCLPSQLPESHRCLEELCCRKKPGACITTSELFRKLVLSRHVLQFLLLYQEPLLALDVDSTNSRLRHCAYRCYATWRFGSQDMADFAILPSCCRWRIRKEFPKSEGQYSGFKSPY
protocol_details: P2X7 FLIPR assay: antagonism of BzATP response in 293 HEK cells stably expressing P2X7 receptor
Format: cell-based
condition: FLIPR fluorescence (Fluo-4), agonist BzATP, 293 HEK cells stably transfected with P2X7 receptor
pIC50: −log10 of the molar value.
Hi, to clarify the labels: criterion met covers pIC50 from 8 upward, criterion not met covers anything below 8.

Item O=C(NCC(c1ccc(F)nc1)N1CCC(F)(F)CC1)c1cccc(Cl)c1Cl (stereo not drawn) with pIC50 of 8 or above?
criterion met

Item O=C(NCC(c1ccc(C(F)(F)F)nc1)N1CCC(F)(F)CC1)c1ccccc1Cl (stereo not drawn) with pIC50 of 8 or above?
criterion met

Item Cc1ccccc1C(=O)NCC(c1ccc(F)cc1)N1CCOCC1 (stereo not drawn) with pIC50 of 8 or above?
criterion not met

Item Cc1ncc(C(CNC(=O)c2c(F)cccc2F)N2CCOCC2)cn1 (stereo not drawn) with pIC50 of 8 or above?
criterion not met

Item CCc1ncc(C(CNC(=O)c2c(Cl)cccc2Cl)N2CCC(F)(F)CC2)cn1 (single isomer, unassigned; (-)) [(−)2,6-dichloro-N-[2-(4,4-difluoro-1-piperidyl)-2-(2-ethylpy] with pIC50 of 8 or above?
criterion not met

Item Cc1ncc(C(CNC(=O)c2ccccc2Cl)N2CCCCC2)cn1 (single isomer, unassigned; (+)) [(+)2-chloro-N-[2-(2-methylpyrimidin-5-yl)-2-(1-piperidyl)eth] with pIC50 of 8 or above?
criterion not met

Item O=C(NCC(c1cnc(C(F)(F)F)nc1)N1CCOCC1)c1ccccc1Cl (single isomer, unassigned; (+)) [(+)2-chloro-N-[2-morpholino-2-[2-(trifluoromethyl)pyrimidin-] with pIC50 of 8 or above?
criterion not met

Item Cc1ncc(C(CNC(=O)c2cccc(Cl)c2Cl)N2CCCCC2)cn1 (single isomer, unassigned; (-)) [(−)2,3-dichloro-N-[2-(2-methylpyrimidin-5-yl)-2-(1-piperidyl] with pIC50 of 8 or above?
criterion not met

----------
target_of_assay: UniProt Q99572
protocol_details: P2X7 FLIPR assay: antagonism of BzATP response in 293 HEK cells stably expressing P2X7 receptor
condition: FLIPR fluorescence (Fluo-4), agonist BzATP, 293 HEK cells stably transfected with P2X7 receptor
pIC50: −log10 of the molar value.
Hi, to clarify the labels: Criterion met covers pIC50 from 7 upward, Criterion not met covers anything below 7.

Item Cc1ncc(C(CNC(=O)c2cccc(F)c2Cl)N2CCCC(F)(F)C2)cn1 (single isomer, unassigned; (-)) [(−)2-chloro-N-[2-(3,3-difluoro-1-piperidyl)-2-(2-methylpyrim] with pIC50 of 7 or above?
Criterion met

Item Cc1ncc(C(CNC(=O)c2c(Cl)ccc(F)c2Cl)N2CCC(F)(F)CC2)cn1 (single isomer, unassigned; (-)) [(−)2,6-dichloro-N-[2-(4,4-difluoro-1-piperidyl)-2-(2-methylp] with pIC50 of 7 or above?
Criterion met

Item Cc1ncc(C(CNC(=O)c2cccc(OC(F)(F)F)c2Cl)N2CCC(F)(F)CC2)cn1 (single isomer, unassigned; (+)) [(+)2-chloro-N-[2-(4,4-difluoro-1-piperidyl)-2-(2-methylpyrim] with pIC50 of 7 or above?
Criterion met

Item Cc1ncc(C(CNC(=O)c2cccc(Cl)c2Cl)N2CCCCC2C)cn1 (centres unmarked) with pIC50 of 7 or above?
Criterion not met

Item COc1ccc(C(=O)NCC(c2cnc(C(F)(F)F)nc2)N2CCC(F)(F)CC2)c(Cl)c1 (single isomer, unassigned; (-)) [(−)2-chloro-N-[2-(4,4-difluoro-1-piperidyl)-2-[2-(trifluorom] with pIC50 of 7 or above?
Criterion met
